Origin of values: the Human Domainome abundance scans (Beltran et al. 2025)

B1: Nuclear receptor subfamily 4 group A member 2, residues 260 to 336; numbered along this chain, P43354 (parent)
chain: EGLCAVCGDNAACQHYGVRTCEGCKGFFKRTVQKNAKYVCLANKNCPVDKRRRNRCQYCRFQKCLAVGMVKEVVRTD

variants of: B1; assay: abundance fitness (aPCA) (normalised: wild type 0, dead -1); higher = more abundant; growth selection in yeast, the domain comes from the species named; settings: Homo sapiens
So basically: abundance fitness at -0.1 or higher? That is true (1). Lower than -0.1? That is false (0).

VARIANT CODE	CLASS ASSIGNMENT
A66F	false (0)
Q57L	true (1)
R51E	true (1)
E22K	true (1)
V73M	true (1)
P47C	false (0)
Q62E	false (0)
R52W	true (1)
N35W	false (0)
G68C	false (0)
T76A	true (1)
Y16F	true (1)
R30Q	true (1)
T31R	false (0)
F28E	false (0)
E22Q	true (1)
K37H	false (0)
C40Y	true (1)
G2S	true (1)
A66D	true (1)
R55G	true (1)
A66W	false (0)
R52L	true (1)
H15P	true (1)
C46S	false (0)
A66G	true (1)
D77I	false (0)
R30N	false (0)
F61L	true (1)
L65E	true (1)
N35M	false (0)
F27W	false (0)
G17H	true (1)
N54V	true (1)
K44M	true (1)
L65Y	false (0)
K37T	true (1)
F28R	false (0)
N43F	true (1)
K37A	false (0)
F61V	false (0)
Y16Q	true (1)
G68E	false (0)
